assay: PK parameters in mice; type: in vivo, male Swiss (CD-1) mice; conditions: male, Swiss (CD-1), plasma; mouse, po 10 mg/kg, iv 0.9 mg/kg
READOUT NAME: bioavailability

Challenge: State its bioavailability: O=C(Nc1ccc(Cl)cc1)c1c(NC(=O)C2CCCCC2C(=O)O)sc2c1CCC2 (stereo not shown)
Response given: 71%

* * *

tested on: influenza A H1N1 virus; conditions: 22,2 µM peptide, 48 hr post-treatment, A549
READOUT NAME: Neuraminidase activity normalized to vehicle

# SUBSTANCE, READOUT VALUE
records = [
    ("PVHAGPIAP [CPEP87]", "0,8043"),
    ("CPEP52: peptide of the viral peptide library; sequence page not shown (CFITKALGISYG)", "1,0146"),
    ("SVWIPVNEGASTSGM [CPEP77]", "0,9377"),
]

Challenge: State its Neuraminidase activity normalized to vehicle: WRHRAR [CPEP113]
Response given: 0,979

Challenge: State its Neuraminidase activity normalized to vehicle: QILVESPTVLESGTKE [CPEP80]
Response given: 1,1492

Challenge: State its Neuraminidase activity normalized to vehicle: PDSDPQIPPPYVEPTA [CPEP138]
Response given: 1,1918

Challenge: State its Neuraminidase activity normalized to vehicle: RKSASMS [CPEP82]
Response given: 0,7544

* * *

assay: in vivo; conditions: male, CD1, mouse, 20 mg/kg, Lung:Plasma Ratio, 20 mg/kg per os, 2 h
READOUT NAME: Kp

Challenge: State its Kp: O=C(Nc1scc(C2CCc3ccccc3C2)c1C(=O)O)c1ccccc1 (stereo not shown) [dEF3122]
Response given: 0.12

* * *

tested on: influenza A H1N1 virus; details: 0,823 µM peptide, 48 hr post-treatment, A549
READOUT NAME: Neuraminidase activity normalized to vehicle

Example entries begin here.
# SUBSTANCE, EXPERIMENTAL SYSTEM, READOUT VALUE
data = [
    ("CPEP83: peptide of the viral peptide library; sequence page not shown (LHGLSAFSLHSYS)", "influenza A H1N1 virus", "0,6779"),
    ("EPLDLPPIIQ [CPEP45]", "influenza A H1N1 virus", "0,9966"),
    ("GHRMAWDMMMNWSP [CPEP107]", "influenza A H1N1 virus", "0,7424"),
    ("PVHAGPIAPGQMREP [CPEP81]", "influenza A H1N1 virus", "0,9268"),
    ("CPEP127: peptide of the viral peptide library; sequence page not shown (LVKPTVYVYSR)", "influenza A H1N1 virus", "0,9001"),
    ("CPEP153: peptide of the viral peptide library; sequence page not shown (GRKKRRQRRR)", "influenza A H1N1 virus", "1,0171"),
]

Proceeding to the next substance to report its Neuraminidase activity normalized to vehicle.
Challenge: GET Neuraminidase activity normalized to vehicle where system = influenza A H1N1 virus and item = RHIICHGGVI [CPEP133]
Response given: 0,951

* * *

Catalogue of Neuraminidase activity normalized to vehicle readings, one per entry.
tested on: influenza A H1N1 virus; conditions: 0,823 µM peptide, 48 hr post-treatment, A549

Example entries begin here.
# SUBSTANCE, READOUT VALUE
records = [
    ("PDSDPQIPPPYVEPTA [CPEP138]", "1,063"),
    ("PVHAGPIAP [CPEP87]", "1,0155"),
    ("SEKHFRETEV [CPEP106]", "0,9396"),
]

Challenge: State its Neuraminidase activity normalized to vehicle: WRHRAR [CPEP113]
Response given: 0,965

Challenge: State its Neuraminidase activity normalized to vehicle: MSKKPGGPGKNRAVN [CPEP42]
Response given: 0,9146

Challenge: State its Neuraminidase activity normalized to vehicle: ARARALARGAGPANSV [CPEP47]
Response given: 1,0745

Challenge: State its Neuraminidase activity normalized to vehicle: CPEP99: peptide of the viral peptide library; sequence page not shown (SWESHKSGGETRL)
Response given: 0,9063
